# targetUnderTest: T1, human glycophorin A in the red blood cell membrane (human, UniProt P02724 20-150)
# T1 construct: whole, on cells; used for intact RBC, isolated RBC membranes and transfected cells; the assay field tells which; also called GPA; hGPA
# T1 sequence (looked up): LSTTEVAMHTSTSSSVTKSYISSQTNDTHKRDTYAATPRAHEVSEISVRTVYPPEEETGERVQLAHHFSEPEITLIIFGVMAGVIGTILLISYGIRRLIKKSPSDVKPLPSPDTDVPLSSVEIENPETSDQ
# assayName: FACS, RBC Hu03
Could you please report measured fluorescence intensity for the items listed next?
One number for each entry.

Some solved cases for reference:
Hu6C12-23 (antibody, V domains shown, IgG format; VH.1f + Vk.1b) VH: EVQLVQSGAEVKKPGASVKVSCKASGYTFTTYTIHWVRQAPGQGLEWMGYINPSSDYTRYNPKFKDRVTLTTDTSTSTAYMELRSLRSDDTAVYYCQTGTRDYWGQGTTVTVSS VL: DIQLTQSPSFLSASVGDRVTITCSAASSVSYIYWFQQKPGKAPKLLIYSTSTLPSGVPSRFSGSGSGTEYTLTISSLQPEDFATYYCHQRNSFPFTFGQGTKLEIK    1460
Hu6C12-19 (antibody, V domains shown, IgG format; VH.1b + Vk.1b) VH: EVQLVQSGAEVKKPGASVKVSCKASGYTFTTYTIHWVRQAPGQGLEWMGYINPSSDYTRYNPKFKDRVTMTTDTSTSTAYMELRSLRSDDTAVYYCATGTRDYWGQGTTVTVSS VL: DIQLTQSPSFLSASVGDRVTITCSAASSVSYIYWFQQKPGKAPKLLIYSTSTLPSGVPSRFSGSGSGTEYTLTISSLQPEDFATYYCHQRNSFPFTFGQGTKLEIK    1440
Hu6C12-3 (antibody, V domains shown, IgG format; VH.1c + Vk.1) VH: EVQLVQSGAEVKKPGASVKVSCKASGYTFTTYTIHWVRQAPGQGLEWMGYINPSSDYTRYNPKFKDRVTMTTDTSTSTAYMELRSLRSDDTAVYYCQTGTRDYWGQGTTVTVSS VL: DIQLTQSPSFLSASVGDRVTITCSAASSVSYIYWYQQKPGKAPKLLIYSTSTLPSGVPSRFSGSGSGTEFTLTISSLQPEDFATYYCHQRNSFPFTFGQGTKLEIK    862

Value sought for every listed binder: fluorescence intensity.
1. Hu6C12-2 (antibody, V domains shown, IgG format; VH.1b + Vk.1) VH: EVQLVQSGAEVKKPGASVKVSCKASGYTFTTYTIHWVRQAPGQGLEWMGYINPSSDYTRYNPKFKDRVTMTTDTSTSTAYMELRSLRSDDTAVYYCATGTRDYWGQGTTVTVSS VL: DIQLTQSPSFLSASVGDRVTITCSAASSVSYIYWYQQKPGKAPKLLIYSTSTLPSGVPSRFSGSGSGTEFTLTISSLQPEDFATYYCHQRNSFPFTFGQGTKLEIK
2. Hu6C12-22 (antibody, V domains shown, IgG format; VH.1e + Vk.1b) VH: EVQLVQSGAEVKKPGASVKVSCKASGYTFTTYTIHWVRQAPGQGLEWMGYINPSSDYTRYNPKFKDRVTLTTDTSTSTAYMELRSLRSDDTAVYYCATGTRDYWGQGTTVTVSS VL: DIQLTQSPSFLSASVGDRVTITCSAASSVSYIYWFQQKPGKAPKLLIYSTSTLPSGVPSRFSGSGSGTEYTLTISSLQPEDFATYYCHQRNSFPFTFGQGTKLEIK

// result
1: 716; 2: 1330
